B1: library; numbered along this chain (parent)
chain: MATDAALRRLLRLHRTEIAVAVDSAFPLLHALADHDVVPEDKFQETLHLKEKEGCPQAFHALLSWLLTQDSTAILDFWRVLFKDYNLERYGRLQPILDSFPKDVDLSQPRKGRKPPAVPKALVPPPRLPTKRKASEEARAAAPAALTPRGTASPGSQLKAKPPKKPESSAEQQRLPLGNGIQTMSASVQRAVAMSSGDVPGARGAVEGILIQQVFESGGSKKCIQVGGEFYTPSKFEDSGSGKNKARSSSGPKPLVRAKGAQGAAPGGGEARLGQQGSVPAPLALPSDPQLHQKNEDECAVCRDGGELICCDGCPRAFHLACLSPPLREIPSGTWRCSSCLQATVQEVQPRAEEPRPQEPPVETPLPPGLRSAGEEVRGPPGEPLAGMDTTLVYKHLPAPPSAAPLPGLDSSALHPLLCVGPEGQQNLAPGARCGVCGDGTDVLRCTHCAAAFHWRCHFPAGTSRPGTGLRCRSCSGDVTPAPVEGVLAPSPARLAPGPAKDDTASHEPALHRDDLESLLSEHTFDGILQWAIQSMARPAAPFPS

Variants of: B1
Assay: AIRE transcriptional activation functional score (insulin promoter-GFP; nonsense median 0, synonymous median 1) (normalised score); higher = higher AIRE activity (more reporter activation)
Settings: with insulin promoter-GFP reporter in HEK293
Answer 0 if AIRE transcriptional activation functional score is under 0.8, and 1 if it is 0.8 or more.

Study these solved cases before continuing.
{"columns": ["Variant Notation", "Cat"],
 "data": [
  ["P401S", 1],
  ["V301C", 1],
  ["P481T", 0],
  ["G204P", 1],
  ["F543P", 1]
]}

Next item in the queue.
Check if AIRE transcriptional activation functional score >= 0.8 (inclusive). Item: `D84A`
0
